Here, each record is paired with measured pKd data.
Target: TNFRSF9, Q07011
Experiment: Kd (SPR)
When answering, recall that pKd equals minus log10 of the concentration in mol/L, and write that number alone.

Reference set (2 entries):
Binder	Test value
unnamed (protein) chain 1: EVQLVQSGAEVKKPGESLRISCKGSGYSFSTYWISWVRQMPGKGLEWMGKIYPGDSYTNYSPSFQGQVTISADKSISTAYLQWSSLKASDTAMYYCSRGYGVFDYWGQGTLVTVSS chain 2: SYELTQPPSVSVSPGQTASITCSGDNIGDQYAHWYQQKPGQSPVLVIYQDKNRPSGIPERFSGSNSGNTATLTISGTQAMDEADYYCATYTGFGSLAVFGGGTKLTVL	6.89
unnamed (protein) chain 1: EVQLVQSGAEVKKPGESLRISCKGSGYSFSTYWISWVRQMPGKGLEWMGKIYPGDSYTNYSPSFQGQVTISADKSISTAYLQWSSLKASDTAMYYCARGIGLFDYWGQGTLVTVSS chain 2: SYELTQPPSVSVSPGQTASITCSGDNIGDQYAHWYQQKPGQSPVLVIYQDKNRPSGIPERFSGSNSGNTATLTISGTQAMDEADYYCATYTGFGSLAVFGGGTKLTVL	6.76

Shifting focus to the binder that follows.
Recorded result, unnamed (protein) chain 1: EVQLVQSGAEVKKPGESLRISCKGSGYSFSTYWISWVRQMPGKGLEWMGKIYPGDSYTNYSPSFQGQVTISADKSISTAYLQWSSLKASDTAMYYCARGVGLFDYWGQGTLVTVSS chain 2: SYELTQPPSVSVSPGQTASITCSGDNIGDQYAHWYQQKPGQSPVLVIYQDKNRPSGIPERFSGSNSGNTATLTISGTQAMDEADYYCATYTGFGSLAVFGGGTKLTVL , pKd: 6.82
